# Assay remarks: ATG_M_19_CIS: Attagene CIS-FACTORIAL HepG2 Assay for M19 Transcription Factor (Internal Marker) (AID 2282939)
# Conditions: HepG2 Attagene CIS-FACTORIAL M19 internal marker reporter; actives raise or lower the signal
The source made the active and inactive calls. The calls were made as follows: active = hit-call score of the fitted dose curve at least 0.9, where 1 is the maximum; inactive = score below 0.9.
Measurement label: outcome

Compound | Reported
CC(=O)c1ccc2c(c1)[C@H](NC(=O)c1ccc(F)cc1)[C@@H](O)C(C)(C)O2 | inactive
CCOc1cccc(-n2cc(C(=O)N3CCN(c4cc(C(=O)O)c5ccccc5c4)CC3)nc2-c2ccc(C)cc2)c1 | inactive
O=C(O)CCN(C1(C(=O)NO)CCCC1)S(=O)(=O)c1ccc(Oc2ccc(F)cc2)cc1 | inactive
O=C(NS(=O)(=O)/C=C/c1ccccc1)c1ccc(F)cc1Cl | inactive
CCN(C(=O)c1cc(C)cc(OC[C@H](C)Nc2ccncc2)c1)C(C)C | inactive
O=C(O)c1cccc(N(Cc2cccnc2)c2ccc(OC(F)F)c(OC(F)F)c2)c1 | inactive
CCOCCOCCOCCO | inactive
COCCOc1cc2cc(C(=O)NC3CCN(C(C)C)CC3)n(CC(=O)Nc3ccc(Cl)cn3)c2cn1 | inactive
Cc1ccc(C)c(O)c1 | inactive
Cn1cnc([N+](=O)[O-])c1Sc1ncnc2nc[nH]c12 | inactive

Q) State the recorded outcome for this entry: O=c1n(CC2CO2)c(=O)n(CC2CO2)c(=O)n1CC1CO1 (stereo not drawn)
A) inactive

Q) State the recorded outcome for this entry: `COCCOCCOCCOC`
A) inactive

Q) State the recorded outcome for this entry: `CCC(C)(C)C(=O)O[C@H]1C[C@@H](C)C=C2C=C[C@H](C)[C@H](CC[C@@H]3C[C@@H](O)CC(=O)O3)[C@H]21`
A) inactive

Q) State the recorded outcome for this entry: `O=C(O)c1cc(N=Nc2ccc(S(=O)(=O)Nc3ccccn3)cc2)ccc1O`
A) inactive

Q) State the recorded outcome for this entry: `CC(C)(O)c1coc(S(=O)(=O)NC(=O)Nc2c3c(cc4c2CCC4)CCC3)c1`
A) inactive

Q) State the recorded outcome for this entry: `Cc1ccc(N)cc1O`
A) inactive

Q) State the recorded outcome for this entry: `COc1cccc(-c2ccc(/C=C\CN3CCCCCC3)cc2Cl)c1`
A) inactive

Q) State the recorded outcome for this entry: O=C1OC(=O)C2C3C=CC(C3)C12 (stereo not drawn)
A) inactive

Q) State the recorded outcome for this entry: `CCCCCCCCCCCCc1ccccc1`
A) inactive

Q) State the recorded outcome for this entry: `Clc1nc(Cl)c(Cl)c(Cl)c1Cl`
A) inactive

Q) State the recorded outcome for this entry: `CC[C@H]1CC[C@H](NCc2cc3c(cc2OC)[C@H]2C[C@H]2C(=O)N3C)[C@H](c2ccccc2)N1`
A) inactive

----------
# Read-out: E-selectin (Homo sapiens)
# Assay remarks: BSK_LPS_Eselectin: BioMAP Diversity Plus: LPS Assay for Eselectin Biomarker Activity (AID 2283077)
# Conditions: primary human HUVEC with PBMC; actives raise or lower the signal
The source made the active and inactive calls. The calls were made as follows: active = hit-call score of the fitted dose curve at least 0.9, where 1 is the maximum; inactive = score below 0.9.
Measurement label: outcome

Solved entries (count: 5):
Compound | Reported
CCCCCCCCCCCCc1ccccc1 | inactive
CNS(=O)(=O)c1cc(C(=O)N2CCC(CCN3C4CCC3CC(n3c(C)nc5ccccc53)C4)(c3cccc(F)c3)CC2)c(Cl)cc1F (stereo unspecified) | inactive
Cc1c(-c2cccnc2)c2ccccc2n1CCCCC(=O)O | inactive
CCN(C(=O)c1cc(C)cc(OC[C@H](C)Nc2ccncc2)c1)C(C)C | inactive
Nc1cccc(N)c1 | inactive

Below: the item to evaluate.
Q) State the recorded outcome for this entry: CCCCC(CC)COC(=O)CCCCCCCCC(=O)OCC(CC)CCCC (stereo unspecified)
A) inactive

----------
# Read-out: Monocyte Chemoattractant Protein-1 (MCP1), CCL2 (gene 6347)
# Assay remarks: BSK_SAg_MCP1: BioMAP Diversity Plus: SAg Assay for Monocyte Chemoattractant Protein-1 (MCP1) Biomarker Activity (AID 2283090)
# Conditions: primary human HUVEC with PBMC; actives raise or lower the signal
The source made the active and inactive calls. The calls were made as follows: active = hit-call score of the fitted dose curve at least 0.9, where 1 is the maximum; inactive = score below 0.9.
Respond with a class label; see yes for active, no for inactive

Q) Assay outcome for CCCCC(CC)COC(=O)CCCCCCCCC(=O)OCC(CC)CCCC (stereo not drawn) : what was it?
A) no

Q) Assay outcome for O=c1[nH]c2ccc(S(=O)CCN3CCC(Cc4ccc(F)cc4)CC3)cc2o1 (stereo not drawn) : what was it?
A) no

Q) Assay outcome for `CCOC(=O)CC(CC(=O)OCC)(OC(C)=O)C(=O)OCC` : what was it?
A) no

Q) Assay outcome for `O=C(OC[C@H]1O[C@@H](OC(=O)c2cc(O)c(O)c(OC(=O)c3cc(O)c(O)c(O)c3)c2)[C@H](OC(=O)c2cc(O)c(O)c(OC(=O)c3cc(O)c(O)c(O)c3)c2)[C@@H](OC(=O)c2cc(O)c(O)c(OC(=O)c3cc(O)c(O)c(O)c3)c2)[C@@H]1OC(=O)c1cc(O)c(O)c(OC(=O)c2cc(O)c(O)c(O)c2)c1)c1cc(O)c(O)c(OC(=O)c2cc(O)c(O)c(O)c2)c1` : what was it?
A) yes

Q) Assay outcome for O=C(O)CC(O)C(=O)O (stereo not drawn) : what was it?
A) no

Q) Assay outcome for `CCCC(=O)OCC` : what was it?
A) no

Q) Assay outcome for `CC(C)=CCC/C(C)=C/CO` : what was it?
A) no

Q) Assay outcome for `O=C1CCCCCN1` : what was it?
A) no

----------
# Assay remarks: APR_HepG2_MitoMembPot_24hr: Apredica 24-hour HepG2 Assay for Mitochondrial Membrane Potential (AID 2282911)
# Conditions: imaging, actives raise or lower the signal
Calls of active or inactive are those of the source. How the source made its calls: active means hit-call score of the fitted dose curve at least 0.9, where 1 is the maximum; inactive means score below 0.9.
Respond with a class label; see 1 for active, -1 for inactive

Q) Assay outcome for `CC(C)CCCCCCOC(=O)c1ccc(C(=O)OCCCCCCC(C)C)c(C(=O)OCCCCCCC(C)C)c1` : what was it?
A) -1

Q) Assay outcome for `Cc1ccc(S(=O)(=O)O)cc1C` : what was it?
A) -1

Q) Assay outcome for `CCCC(=O)OCC` : what was it?
A) -1

Q) Assay outcome for CNS(=O)(=O)c1cc(C(=O)N2CCC(CCN3C4CCC3CC(n3c(C)nc5ccccc53)C4)(c3cccc(F)c3)CC2)c(Cl)cc1F (stereo unspecified) : what was it?
A) -1

Q) Assay outcome for `O=C(CCCCCCCCc1cccnc1)N1CCC(C=C(c2ccccc2)c2ccccc2)CC1` : what was it?
A) -1

Q) Assay outcome for `CCc1cc(SCc2sc(-c3ccc(C(F)(F)F)cc3)nc2CN2CCN(c3ccc(OC)cc3)CC2)ccc1OCC(=O)O` : what was it?
A) -1

Q) Assay outcome for CCOC(=O)c1ccc(C2CCC(NC[C@H](O)COc3ccc(O)c(NS(C)(=O)=O)c3)CC2)cc1 (stereo partly specified) : what was it?
A) 1

Q) Assay outcome for `CCNc1ccccc1` : what was it?
A) -1

Q) Assay outcome for `O=C(O)c1cccc(Oc2ccccc2)c1` : what was it?
A) -1

Q) Assay outcome for `Nc1cccc(N)c1` : what was it?
A) -1

Q) Assay outcome for `Cc1ccc(N)cc1O` : what was it?
A) 1

----------
# Read-out: 3-Hydroxy-3-Methylglutaryl-CoA Synthase 2 (HMGCS2), HMGCS2 (gene 3158)
# Assay remarks: LTEA_HepaRG_HMGCS2: Life Technologies and Expression Analysis (LTEA) Assay for 3-Hydroxy-3-Methylglutaryl-CoA Synthase 2 (HMGCS2) using HepaRG (AID 2283504)
# Conditions: mRNA level, 48 h; actives raise or lower the signal
# Method: LTEA_HepaRG is a cell based, multiplexed-readout assay that uses HepaRG, a human liver cell line, with measurements taken at 48 hours after chemical dosing on a 96-well plate.LTEA_HepaRG_HMGCS2 is one of 102 assay component(s) measured in the LTEA HepaRG cell culture assay. It is a marker of Steatosis.Data from the assay component LTEA_HepaRG_HMGCS2 was analyzed into 1 endpoint. […]
The source made the active and inactive calls. Rule for the calls: active = hit-call score of the fitted dose curve at least 0.9, where 1 is the maximum; inactive = score below 0.9.
Respond with a class label; see 1 = active, 0 = inactive

Q) Assay outcome for `O=C(OC[C@H]1O[C@@H](OC(=O)c2cc(O)c(O)c(OC(=O)c3cc(O)c(O)c(O)c3)c2)[C@H](OC(=O)c2cc(O)c(O)c(OC(=O)c3cc(O)c(O)c(O)c3)c2)[C@@H](OC(=O)c2cc(O)c(O)c(OC(=O)c3cc(O)c(O)c(O)c3)c2)[C@@H]1OC(=O)c1cc(O)c(O)c(OC(=O)c2cc(O)c(O)c(O)c2)c1)c1cc(O)c(O)c(OC(=O)c2cc(O)c(O)c(O)c2)c1` : what was it?
A) 1

Q) Assay outcome for `CCN(C(=O)c1cc(C)cc(OC[C@H](C)Nc2ccncc2)c1)C(C)C` : what was it?
A) 1

Q) Assay outcome for `Cn1c(=O)c2c(ncn2C)n(C)c1=O` : what was it?
A) 0

Q) Assay outcome for `CCCCCCCCCCCCCCCO` : what was it?
A) 0

Q) Assay outcome for `O=C1CCCCCN1` : what was it?
A) 0

Q) Assay outcome for CNS(=O)(=O)c1cc(C(=O)N2CCC(CCN3C4CCC3CC(n3c(C)nc5ccccc53)C4)(c3cccc(F)c3)CC2)c(Cl)cc1F (stereo unspecified) : what was it?
A) 1
